Values compiled from ChEMBL document CHEMBL4270553.

# Tested on: SR
# Experiment Notes: Antiproliferative activity against human SR cells assessed as growth inhibition at 10 uM after 48 hrs by sulforhodamine B assay relative to control
# Type: functional
# Condition Summary: read-out: GI
Catalogue of molecules with associated inhibition of growth at 10 µM
Write the answer as a number in %, unit excluded.

See these solved cases before continuing.
Exam item: Returns the measured inhibition of growth at 10 µM for the input molecule. Input: CCOC(=O)C1=C(Cn2cc(CO)nn2)N(C)C(=O)NC1c1ccccc1 (configuration not stated)
Marked response: 2

Exam item: Returns the measured inhibition of growth at 10 µM for the input molecule. Input: CCOC(=O)C1=C(CSC(=S)N2CCCCC2)N(C)C(=O)NC1c1ccccc1 (configuration not stated)
Marked response: 27

Others:
Exam item: Returns the measured inhibition of growth at 10 µM for the input molecule. Input: CCOC(=O)C1=C(CSc2nnnn2-c2ccccc2)N(C)C(=O)NC1c1ccccc1 (configuration not stated)
Marked response: 13

Exam item: Returns the measured inhibition of growth at 10 µM for the input molecule. Input: CCOC(=O)C1=C(CSC(=S)N2CCOCC2)N(C)C(=O)NC1c1ccccc1 (configuration not stated)
Marked response: 12

====

Serine/threonine-protein kinase mTOR (Homo sapiens, UniProt P42345): recorded pIC50 for assorted molecules
By convention, pIC50 is the negative base-10 log of a molar concentration.

Exam item: Returns the measured pIC50 for the input molecule. Input: CCOC(=O)C1=C(CSC(=S)N(C2CCCCC2)C2CCCCC2)N(C)C(=O)NC1c1ccccc1 (configuration not stated)
Marked response: 6.19

Now for a further molecule.
Exam item: Returns the measured pIC50 for the input molecule. Input: CCOC(=O)C1=C(CSc2nc3cc([N+](=O)[O-])ccc3[nH]2)N(C)C(=O)NC1c1ccccc1 (configuration not stated)
Marked response: 6.14

====

# Tested on: UACC-62
# Experiment Notes: Antiproliferative activity against human UACC62 cells assessed as growth inhibition at 10 uM after 48 hrs by sulforhodamine B assay relative to control
# Format: functional
# Condition Summary: UACC-62, 48 h, read-out: GI
Readout Kind: inhibition of growth at 10 µM (%)
Write the answer as a number in %, unit excluded.

Exam item: Returns the measured inhibition of growth at 10 µM for the input molecule. Input: CCOC(=O)C1=C(CSC(=S)N2CCOCC2)N(C)C(=O)NC1c1ccccc1 (stereo not given)
Marked response: 16

Others:
Exam item: Returns the measured inhibition of growth at 10 µM for the input molecule. Input: CCOC(=O)C1=C(CSC2=NCCS2)N(C)C(=O)NC1c1ccccc1 (stereo not given)
Marked response: 27

Exam item: Returns the measured inhibition of growth at 10 µM for the input molecule. Input: CCOC(=O)C1=C(CSc2nnc(-c3ccccc3)o2)N(C)C(=O)NC1c1ccccc1 (stereo not given)
Marked response: 10

Exam item: Returns the measured inhibition of growth at 10 µM for the input molecule. Input: CCOC(=O)C1=C(CN(C2CCCCC2)C2CCCCC2)N(C)C(=O)NC1c1ccccc1 (stereo not given)
Marked response: 23

Exam item: Returns the measured inhibition of growth at 10 µM for the input molecule. Input: CCOC(=O)C1=C(CSc2nc3ccccc3[nH]2)N(C)C(=O)NC1c1ccccc1 (stereo not given)
Marked response: 11

Exam item: Returns the measured inhibition of growth at 10 µM for the input molecule. Input: CCOC(=O)C1=C(CSC(=S)N(C2CCCCC2)C2CCCCC2)N(C)C(=O)NC1c1ccccc1 (stereo not given)
Marked response: 54

Exam item: Returns the measured inhibition of growth at 10 µM for the input molecule. Input: CCOC(=O)C1=C(CSC(=S)N2CCN(c3ccc(OC)cc3)CC2)N(C)C(=O)NC1c1ccccc1 (stereo not given)
Marked response: 42

Exam item: Returns the measured inhibition of growth at 10 µM for the input molecule. Input: CCOC(=O)C1=C(CSC(=S)N2CCCCC2)N(C)C(=O)NC1c1ccccc1 (stereo not given)
Marked response: 28

Exam item: Returns the measured inhibition of growth at 10 µM for the input molecule. Input: CCOC(=O)C1=C(CSc2nnnn2-c2ccccc2)N(C)C(=O)NC1c1ccccc1 (stereo not given)
Marked response: 17

Exam item: Returns the measured inhibition of growth at 10 µM for the input molecule. Input: CCOC(=O)C1=C(CSC(=S)N2CCN(c3ccccc3)CC2)N(C)C(=O)NC1c1ccccc1 (stereo not given)
Marked response: 24

====

Catalogue of compounds with associated inhibition of growth at 10 µM
# System: SR
# Experiment Notes: Antiproliferative activity against human SR cells assessed as growth inhibition at 10 uM after 48 hrs by sulforhodamine B assay relative to control
# Type: functional
# Condition Summary: read-out: GI
Write the answer as a number in %, unit excluded.

See these solved cases before continuing.
Exam item: Give inhibition of growth at 10 µM (SR) of the following compound: CCOC(=O)C1=C(CSC2=NCCS2)N(C)C(=O)NC1c1ccccc1 (stereo not drawn)
Marked response: 40

Exam item: Give inhibition of growth at 10 µM (SR) of the following compound: CCOC(=O)C1=C(CSC(=S)N2CCN(c3ccccc3)CC2)N(C)C(=O)NC1c1ccccc1 (stereo not drawn)
Marked response: 44

Others:
Exam item: Give inhibition of growth at 10 µM (SR) of the following compound: CCOC(=O)C1=C(CSc2nnc(-c3ccccc3)o2)N(C)C(=O)NC1c1ccccc1 (stereo not drawn)
Marked response: 16
